Data origin: ChEMBL document CHEMBL1156451

# Tested on: Escherichia coli
# ASSAY NAME: Antibacterial activity against Escherichia coli ATCC 25922 after 24 hrs in Mueller-Hinton broth medium
# Assay type: functional
# CONDITION SUMMARY: ATCC 25922, 24 h
Where a SMILES comes first, the peptide text is derived from it.
Collected MIC values appear next to each entry.
State just the number; it will be interpreted in µg/mL.

| MOLECULE | QUANTITY MEASURED | EXPERIMENTAL RESULT |
| --- | --- | --- |
| CC[C@H](C)[C@H](NC(=O)[C@H](CCCCN)NC(=O)[C@H](CCCCN)NC(=O)[C@H](CO)NC(=O)[C@@H](NC(=O)[C@@H](N)CCCCN)[C@@H](C)CC)C(=O)N[C@@H](CCSC)C(=O)N[C@@H](CCCNC(=N)N)C(=O)N[C@H](C(=O)N[C@@H](Cc1ccccc1)C(=O)N[C@@H](CC(C)C)C(=O)N[C@@H](CCCNC(=N)N)C(=O)N[C@@H](CCCNC(=N)N)C(N)=O)[C@@H](C)O (H-KISKKIMRTFLRR-NH2) | MIC | 64 |

Supply measured MIC of CC[C@H](C)[C@H](NC(=O)[C@H](CCCCN)NC(=O)[C@@H](N)CCCCN)C(=O)N[C@@H](CCSC)C(=O)N[C@@H](CCCNC(=N)N)C(=O)N[C@H](C(=O)N[C@@H](Cc1ccccc1)C(=O)N[C@@H](CC(C)C)C(=O)N[C@@H](CCCNC(=N)N)C(=O)N[C@@H](CCCNC(=N)N)C(N)=O)[C@@H](C)O (H-KKIMRTFLRR-NH2) in your reply.
256
